# log10 IC50 listing for each entry below
# target.under.test: Human recombinant PDE3A (hPDE3A) (Homo sapiens)
# Construct: purchased Scottish Biomedical; host or cells: Sf9 insect cells
# Sequence (Q14432 whole entry): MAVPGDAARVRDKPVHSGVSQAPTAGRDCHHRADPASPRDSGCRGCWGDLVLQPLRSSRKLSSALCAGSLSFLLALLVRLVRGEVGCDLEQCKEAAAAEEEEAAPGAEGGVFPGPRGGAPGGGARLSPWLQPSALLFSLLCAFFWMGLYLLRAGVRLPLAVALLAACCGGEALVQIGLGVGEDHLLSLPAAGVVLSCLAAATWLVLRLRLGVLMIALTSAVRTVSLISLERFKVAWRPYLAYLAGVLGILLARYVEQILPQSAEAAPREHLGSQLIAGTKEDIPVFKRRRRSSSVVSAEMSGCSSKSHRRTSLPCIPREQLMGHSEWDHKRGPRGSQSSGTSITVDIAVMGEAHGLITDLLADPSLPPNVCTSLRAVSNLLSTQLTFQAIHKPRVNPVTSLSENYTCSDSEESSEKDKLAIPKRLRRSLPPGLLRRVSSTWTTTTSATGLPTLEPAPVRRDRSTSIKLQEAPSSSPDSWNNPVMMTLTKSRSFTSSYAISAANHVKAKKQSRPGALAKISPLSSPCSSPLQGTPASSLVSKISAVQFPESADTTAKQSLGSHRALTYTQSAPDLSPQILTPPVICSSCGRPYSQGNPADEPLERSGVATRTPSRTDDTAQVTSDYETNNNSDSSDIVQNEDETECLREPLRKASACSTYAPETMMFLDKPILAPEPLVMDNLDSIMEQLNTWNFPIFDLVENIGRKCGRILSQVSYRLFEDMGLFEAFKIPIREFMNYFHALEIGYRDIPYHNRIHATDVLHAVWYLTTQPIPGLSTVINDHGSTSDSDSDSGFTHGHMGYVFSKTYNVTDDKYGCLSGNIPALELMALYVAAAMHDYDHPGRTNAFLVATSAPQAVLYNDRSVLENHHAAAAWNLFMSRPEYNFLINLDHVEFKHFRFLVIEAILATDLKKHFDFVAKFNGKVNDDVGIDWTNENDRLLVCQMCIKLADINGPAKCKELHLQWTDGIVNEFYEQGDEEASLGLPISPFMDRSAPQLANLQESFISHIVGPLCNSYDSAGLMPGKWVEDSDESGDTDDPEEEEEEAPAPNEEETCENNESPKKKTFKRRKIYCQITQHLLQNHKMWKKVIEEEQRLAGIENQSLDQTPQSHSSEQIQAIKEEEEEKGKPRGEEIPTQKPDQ
# protocol.text: In vitro assay PDE3A (SPA, 3H-cAMP hydrolysis);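 note: the method names PDE3A and the table heading PDE3B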
# Assay type: biochemical
# condition.description: hPDE3B pIC50; read-out: pIC50 (converted)
Recall that a logarithmic scale is used here: each number is log10 of IC50 in µM.

These solved cases illustrate the format of a correct answer.
[
  {
    "molecule": "C[C@@H]1CCN(C(=O)c2ccc3ncoc3c2)C[C@H]1c1cc(C(F)F)nc2ncnn12 [Compound 104]",
    "target.under.test": "Human recombinant PDE3A (hPDE3A) (Homo sapiens)",
    "quantity.measured": "log10 IC50",
    "endpoint.result": -0.29
  },
  {
    "molecule": "COc1cc(C(=O)N2CC[C@@H](C)[C@H](c3cc(C(F)F)nc4ncnn34)C2)c(F)cn1 [Compound 36]",
    "target.under.test": "Human recombinant PDE3A (hPDE3A) (Homo sapiens)",
    "quantity.measured": "log10 IC50",
    "endpoint.result": 0.60
  },
  {
    "molecule": "C[C@@H]1CCN(C(=O)c2ccc3ocnc3c2)C[C@H]1c1cc(C(F)F)nc2ncnn12 [Compound 116]",
    "target.under.test": "Human recombinant PDE3A (hPDE3A) (Homo sapiens)",
    "quantity.measured": "log10 IC50",
    "endpoint.result": 0.34
  },
  {
    "molecule": "C[C@@H]1CCN(C(=O)c2cc(Cl)ncc2F)C[C@H]1c1cc(C(F)F)nc2ncnn12 [Compound 54]",
    "target.under.test": "Human recombinant PDE3A (hPDE3A) (Homo sapiens)",
    "quantity.measured": "log10 IC50",
    "endpoint.result": 0.98
  },
  {
    "molecule": "C[C@@H]1CCN(C(=O)c2ccc3nc(N)sc3c2)C[C@H]1c1cc(C(F)F)nc2ncnn12 [Compound 88]",
    "target.under.test": "Human recombinant PDE3A (hPDE3A) (Homo sapiens)",
    "quantity.measured": "log10 IC50",
    "endpoint.result": -0.41
  },
  {
    "molecule": "Cc1cc([C@@H]2CN(C(=O)c3oc4ccccc4c3C)CC[C@H]2C)n2ncnc2n1 [Compound 7]",
    "target.under.test": "Human recombinant PDE3A (hPDE3A) (Homo sapiens)",
    "quantity.measured": "log10 IC50",
    "endpoint.result": -1.12
  }
]

Exercise: Recorded log10 IC50 for C[C@@H]1CCN(C(=O)c2ccc(Cl)c(C(F)(F)F)c2)C[C@H]1c1cc(C(F)F)nc2ncnn12 [Compound 169] , please?
Solution: 0.25

Exercise: Any idea what its log10 IC50 is? The molecule is C[C@@H]1CCN(C(=O)c2cccc3c2ncn3C)C[C@H]1c1cc(C(F)F)nc2ncnn12 [Compound 178]
Solution: 0.87

Exercise: For COc1cccc2c1OCC(C(=O)N1CC[C@@H](C)[C@H](c3cc(C(F)F)nc4ncnn34)C1)=C2 [Compound 267] , what is its reported log10 IC50?
Solution: -1.21

Exercise: Find the recorded log10 IC50 belonging to C[C@@H]1CCN(C(=O)c2ccc3ncccc3c2)C[C@H]1c1cc(C(F)F)nc2ncnn12 [Compound 322] and report it.
Solution: -0.32

Exercise: Consider the molecule shown here: COc1ccc(C(=O)N2CC[C@@H](C)[C@H](c3cc(C(F)F)nc4ncnn34)C2)cc1OC(F)F [Compound 133] What is its recorded log10 IC50?
Solution: 0.21

Exercise: # input molecule: COc1c(C(=O)N2CC[C@@H](C)[C@H](c3cc(C(F)F)nc4ncnn34)C2)cccc1C(F)(F)F [Compound 247] ; wanted: its log10 IC50
Solution: 0.31

Exercise: Field request: log10 IC50 | item: C[C@@H]1CCN(C(=O)c2ccc3nccn3c2)C[C@H]1c1cc(C(F)F)nc2ncnn12 [Compound 40]
Solution: 0.85
